Value source: the supplement of paper PMC13380429

# Tested on: U2OS
# experimental details: cell viability relative to DMSO; higher = less toxic
# condition summary: 72 h; 10 nM
// reported cell viability for each item listed
measured endpoint: cell viability (%)

* C#C[C@]1(O)CC[C@H]2[C@@H]3CCC4=CC(=O)CC[C@@H]4[C@H]3C(=C)C[C@@]21CC | 95.1
* O=C(NCC1(N2CCN(c3ccccc3)CC2)CCOCC1)c1cccnc1Sc1ccccc1 | 96.5
* Oc1ccc(-c2nc3cc(O)cc(Br)c3o2)cc1 | 105
* C#Cc1cccc(Nc2ncnc3cc4c(cc23)OCCOCCOCCO4)c1 | 95.6
* CCOC(=O)C1=CCCC[C@H]1S(=O)(=O)Nc1ccc(F)cc1Cl | 97.7
* CC(=O)[C@]1(N)Cc2c(O)c3c(c(O)c2[C@@H](O[C@H]2C[C@H](O)[C@H](O)CO2)C1)C(=O)c1ccccc1C3=O | 99
* NS(=O)(=O)c1nn2cc(-c3ccccc3)nc2s1 | 98.1
* O=C(O)CCC(=O)O | 102
* O=c1cc(-c2ccccc2)oc2cc(O)cc(O)c12 | 97
* C[C@@]12CCc3occc3[C@H]1CC[C@@]13C[C@@H](CC[C@H]12)[C@@](O)(CO)C3 | 103
* O=C(c1c2ccccc2cc2ccccc12)N1CCC(N2CCC[C@@H](C(=O)N3CCOCC3)C2)CC1 | 98.9
* CN(C)CCOc1ccc(-c2nc(-c3ccncc3)c(-c3ccc4c(c3)CC/C4=N\O)[nH]2)cc1 | 108
* O=c1[nH]cc(F)c(=O)[nH]1 | 97.4
* CCCCCCCCCCCCCCCCCCCCCCCCC(=O)O | 98.5
* Cn1cc(C(F)(F)F)nc1-c1ccc(OCC(O)CNCCOc2ccc(O)c(C(N)=O)c2)cc1 (stereo not drawn) | 100
* Cc1ncc(OC[C@@]2(c3cccc(F)c3)C[C@H]2C(=O)Nc2ccc(F)cn2)c(C)n1 | 100
* Nc1ccn([C@@H]2O[C@H](CO)[C@@H](O)[C@@H]2O)c(=O)n1 | 94.3
* CC(OC(=O)OC1CCCCC1)OC(=O)C1=C(CSc2nnnn2CCN(C)C)CS[C@@H]2[C@H](NC(=O)Cc3csc(N)n3)C(=O)N12 (stereo partly drawn) | 102

---

// reported cell viability for each item listed
# System: HepG2
# experimental details: cell viability relative to DMSO; higher = less toxic
# condition summary: 72 h; 100 nM
measured endpoint: cell viability (%)

• C[N+](C)(CCOc1ccccc1)Cc1ccccc1 [bephenium-hydroxynaphthoate] = 92.3
• Cc1ccccc1C(OCCN(C)C)c1ccccc1 (stereo not drawn) = 90.7
• CCNCCCNCCCCNCCCNCC = 106
• O=C(NC1(c2ccccc2)CC1)c1c(CN2CCC(N3CCCCC3)CC2)c(-c2cccc(C(F)(F)F)c2)nc2cc(Br)ccc12 = 104
• Cc1ncc(CO)c(C=O)c1O = 102
• CCN1CCCC1CNC(=O)c1cc(S(=O)(=O)CC)c(N)cc1OC (stereo not drawn) [amisulpride] = 94.6
• Cc1cc(C)c(S(=O)(=O)Nc2ccccc2C(F)(F)F)c(C)c1 = 95.6
• COC(=O)C1=C(C)NC(C)=C(C(=O)O[C@H]2CCN(Cc3ccccc3)C2)[C@H]1c1cccc([N+](=O)[O-])c1 = 85.1
• Cc1ccc(C(=O)Nc2ccc(Oc3cc4cnn(C)c4cc3-c3cn[nH]c3)c(F)c2)c(=O)n1-c1ccc(F)cc1 = 97.4
• CCCCCCCCCCCCCCCCCCCCCCCCC(=O)O = 98
• c1cc2c(cc1C1CCCCC1)c1c3n2CCNC3CCC1 (stereo not drawn) = 95.8
• C=Cc1cc(O)cc2nc(-c3ccc(O)c(F)c3)oc12 = 93.4
• C[N+]1(C)[C@@H]2CC[C@H]1C[C@@H](OC(=O)C(O)c1ccccc1)C2 (stereo partly drawn) [homatropine-methylbromide] = 102
• CNCC(O)c1ccc(O)c(O)c1 (racemic) = 110
• Cn1cc(C[C@@H](N)C(=O)O)c2ccccc21 = 102
• COc1ccc(OC)c(CN(C(C)=O)c2cc(F)ccc2Oc2ccccc2)c1 = 99.2
• CC(C)(C)S(=O)(=O)N[C@H]1CC[C@H](C(=O)Nc2ccc(C(F)(F)F)cn2)CC1 = 105
• CCC[C@H](N[C@@H](C)C(=O)N1[C@H](C(=O)O)C[C@@H]2CCCC[C@@H]21)C(=O)O = 103
